# target: hT1R2/hT1R3 sweet receptor (Homo sapiens, UniProt Q7RTX0+Q8TE23)
# Construct: expressed in transfected cells; host or cells: HEK293 derivative stably expressing Gα15, clone S-9
# Sequence (Q8TE23 20-839, one chain of several): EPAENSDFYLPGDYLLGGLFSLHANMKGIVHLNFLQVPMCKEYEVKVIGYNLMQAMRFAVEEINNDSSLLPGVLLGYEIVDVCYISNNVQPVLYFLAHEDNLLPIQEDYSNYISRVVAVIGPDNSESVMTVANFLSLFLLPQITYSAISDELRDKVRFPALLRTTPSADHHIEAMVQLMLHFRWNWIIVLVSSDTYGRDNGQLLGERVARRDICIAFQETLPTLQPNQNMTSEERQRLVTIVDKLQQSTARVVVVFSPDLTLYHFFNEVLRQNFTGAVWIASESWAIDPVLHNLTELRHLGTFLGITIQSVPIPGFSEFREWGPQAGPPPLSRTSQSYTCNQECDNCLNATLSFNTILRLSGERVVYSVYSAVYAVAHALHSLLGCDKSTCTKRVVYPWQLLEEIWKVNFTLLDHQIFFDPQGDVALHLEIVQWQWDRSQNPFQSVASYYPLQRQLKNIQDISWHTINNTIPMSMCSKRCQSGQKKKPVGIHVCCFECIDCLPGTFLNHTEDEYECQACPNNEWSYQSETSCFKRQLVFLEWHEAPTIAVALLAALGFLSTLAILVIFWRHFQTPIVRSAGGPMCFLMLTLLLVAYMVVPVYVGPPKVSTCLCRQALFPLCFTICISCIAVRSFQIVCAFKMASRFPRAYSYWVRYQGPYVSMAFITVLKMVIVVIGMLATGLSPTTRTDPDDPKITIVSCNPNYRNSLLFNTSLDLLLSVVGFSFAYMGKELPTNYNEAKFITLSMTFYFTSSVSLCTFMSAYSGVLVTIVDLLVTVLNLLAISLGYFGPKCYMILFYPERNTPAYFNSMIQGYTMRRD
# protocol.notes: In vitro hT1R2/hT1R3 sweet taste receptor activation assay (FLIPR, dose response)
# Type: cell-based
# test.conditions: Table E, Sweet Enhancer Amides; read-out: Sweet EC50
Measured log10 EC50 of individual entries
measurement.type: log10 EC50 (log10 of the value in µM)

INSERT INTO results (compound, value) VALUES
  ('O=C(NC1CCCc2ccccc21)c1c(Cl)cccc1Cl (stereo not shown)', 0.48),
  ('Cc1nocc1C(=O)N[C@@H]1CCCc2ccccc21', 0.89),
  ('N#Cc1c(F)cccc1NC(=O)c1ccc(Cl)cc1Cl', 0.43),
  ('COc1c(Cl)cc(Cl)c(OC)c1C(=O)NC1CCCCC1C (stereo not shown)', -0.15),
  ('CC12CCC(C1)C(C)(C)C2NC(=O)c1cccs1 (stereo not shown)', 0.53),
  ('COc1cccc2c1CCCC2NC(=O)c1cccc(C(C)C)c1O (stereo not shown)', 0.42),
  ('Cc1c(F)c(F)c(C(=O)NC(C)C(C)C)c(F)c1F (stereo not shown)', -0.85),
  ('O=C(Nc1ccc(Cl)cc1Cl)N1CCc2ccccc2C1', 0.37),
  ('O=C(Nc1ccc(Cl)cc1)N1Cc2ccccc2C1', 0.53),
  ('Cc1c(F)c(F)c(C(=O)NC(C)C(C)(C)C)c(F)c1F (stereo not shown)', -0.68),
  ('O=C(Nc1cccc2c1CCCC2)N1CCc2ccccc21', 0.03),
  ('O=C(Nc1ccccc1Cl)N1Cc2ccccc2C1', 0.59),
  ('COc1ccc(NC(=O)c2cc(Cl)c(OC)c(Cl)c2)cc1', 0.51);

---

# target: hT1R1/hT1R3 umami receptor (Homo sapiens, UniProt Q7RTX0+Q7RTX1)
# Construct: expressed in transfected cells; host or cells: HEK293 derivative stably expressing Gα15, clone I-17, expression induced with mifepristone
# Sequence (Q7RTX1 21-841): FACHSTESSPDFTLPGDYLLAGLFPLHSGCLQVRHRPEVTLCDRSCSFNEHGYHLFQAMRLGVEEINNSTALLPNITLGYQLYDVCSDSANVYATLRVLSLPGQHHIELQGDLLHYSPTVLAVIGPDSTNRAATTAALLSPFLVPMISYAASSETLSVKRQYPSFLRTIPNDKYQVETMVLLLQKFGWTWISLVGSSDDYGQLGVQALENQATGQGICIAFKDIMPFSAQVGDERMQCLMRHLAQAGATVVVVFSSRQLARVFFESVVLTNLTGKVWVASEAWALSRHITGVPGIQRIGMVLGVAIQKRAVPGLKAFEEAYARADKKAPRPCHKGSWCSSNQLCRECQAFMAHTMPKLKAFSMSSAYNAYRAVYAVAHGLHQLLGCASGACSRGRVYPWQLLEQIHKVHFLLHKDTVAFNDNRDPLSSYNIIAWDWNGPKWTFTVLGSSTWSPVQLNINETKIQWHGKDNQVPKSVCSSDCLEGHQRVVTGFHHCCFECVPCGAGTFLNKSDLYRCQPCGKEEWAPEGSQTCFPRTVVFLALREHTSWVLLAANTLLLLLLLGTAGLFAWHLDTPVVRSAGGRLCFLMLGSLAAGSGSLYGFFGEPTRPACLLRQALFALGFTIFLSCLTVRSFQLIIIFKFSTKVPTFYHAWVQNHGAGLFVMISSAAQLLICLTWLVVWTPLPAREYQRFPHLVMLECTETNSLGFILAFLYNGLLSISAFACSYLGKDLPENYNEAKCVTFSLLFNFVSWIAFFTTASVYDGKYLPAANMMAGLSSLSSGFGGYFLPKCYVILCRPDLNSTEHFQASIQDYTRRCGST
# Sequence (Q7RTX0 21-852): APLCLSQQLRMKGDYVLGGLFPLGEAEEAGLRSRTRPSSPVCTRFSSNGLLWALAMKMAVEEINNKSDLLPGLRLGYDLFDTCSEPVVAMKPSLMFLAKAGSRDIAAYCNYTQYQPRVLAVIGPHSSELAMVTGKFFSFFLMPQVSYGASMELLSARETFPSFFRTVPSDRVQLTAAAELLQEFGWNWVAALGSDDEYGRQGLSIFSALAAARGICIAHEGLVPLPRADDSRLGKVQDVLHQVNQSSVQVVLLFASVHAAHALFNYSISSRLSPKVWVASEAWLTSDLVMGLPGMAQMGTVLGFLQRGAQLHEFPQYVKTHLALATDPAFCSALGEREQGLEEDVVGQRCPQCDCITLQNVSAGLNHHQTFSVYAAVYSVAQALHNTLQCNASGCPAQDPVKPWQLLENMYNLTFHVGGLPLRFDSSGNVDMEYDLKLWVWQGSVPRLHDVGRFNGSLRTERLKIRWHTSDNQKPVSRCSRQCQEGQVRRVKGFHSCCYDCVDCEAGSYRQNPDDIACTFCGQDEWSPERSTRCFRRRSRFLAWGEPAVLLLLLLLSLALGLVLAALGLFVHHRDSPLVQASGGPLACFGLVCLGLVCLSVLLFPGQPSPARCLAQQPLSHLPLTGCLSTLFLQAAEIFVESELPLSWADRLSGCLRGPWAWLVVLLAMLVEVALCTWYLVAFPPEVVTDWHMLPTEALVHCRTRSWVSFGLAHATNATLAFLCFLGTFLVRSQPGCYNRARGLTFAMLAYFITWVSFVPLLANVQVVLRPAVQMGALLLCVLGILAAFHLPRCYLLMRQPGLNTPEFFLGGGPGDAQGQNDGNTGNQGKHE
# protocol.notes: In vitro hT1R1/hT1R3 umami taste receptor activation assay (FLIPR, dose response)
# Type: cell-based
# test.conditions: read-out: EC50 for activation of a hT1R1/hT1R3 umami receptor expressed in an HEK293 cell line
pEC50: −log10 of the molar value.
measurement.type: pEC50

INSERT INTO assay_data (compound, target, measurement_type, value) VALUES
  ('CCCC(CC)NC(=O)c1cc2cc(C)ccc2o1 (centres unmarked) [Example 28]', 'hT1R1/hT1R3 umami receptor (Homo sapiens, UniProt Q7RTX0+Q7RTX1)', 'pEC50', 6.13),
  ('CCCC(CCC)NC(=O)c1ccc2oc(SC)nc2c1 [Example 44]', 'hT1R1/hT1R3 umami receptor (Homo sapiens, UniProt Q7RTX0+Q7RTX1)', 'pEC50', 5.51),
  ('CCCC(CCC)NC(=O)c1ccc2c(c1)OC(C(C)C)O2 (centres unmarked) [Example 21]', 'hT1R1/hT1R3 umami receptor (Homo sapiens, UniProt Q7RTX0+Q7RTX1)', 'pEC50', 4.94),
  ('COc1cc(C)ccc1CNC(=O)C(=O)NCCc1ccc(C)cn1 [Example 157]', 'hT1R1/hT1R3 umami receptor (Homo sapiens, UniProt Q7RTX0+Q7RTX1)', 'pEC50', 7.52),
  ('CCC(CC(C)C)NC(=O)c1cc2cc(OC)ccc2o1 (centres unmarked) [Example 31]', 'hT1R1/hT1R3 umami receptor (Homo sapiens, UniProt Q7RTX0+Q7RTX1)', 'pEC50', 5.98),
  ('CCCC(CCC)NC(=O)c1ccc(OCC)c(C)c1 [Example 56]', 'hT1R1/hT1R3 umami receptor (Homo sapiens, UniProt Q7RTX0+Q7RTX1)', 'pEC50', 6.77),
  ('COc1ccc(C(=O)N[C@H]2CCc3ccccc32)cc1C [Example 121-1]', 'hT1R1/hT1R3 umami receptor (Homo sapiens, UniProt Q7RTX0+Q7RTX1)', 'pEC50', 7.10),
  ('CCCC(CCC)NC(=O)c1cnc2ccccc2c1 [Example 102, N-(heptan-4-yl)quinoline-3-carboxamide]', 'hT1R1/hT1R3 umami receptor (Homo sapiens, UniProt Q7RTX0+Q7RTX1)', 'pEC50', 4.80),
  ('COC[C@@H](CC(C)C)NC(=O)c1ccc(OC)c(C)c1 [Example 104]', 'hT1R1/hT1R3 umami receptor (Homo sapiens, UniProt Q7RTX0+Q7RTX1)', 'pEC50', 6.62),
  ('CCCC(CCC)NC(=O)c1ccc2c(c1)OCO2 [Example 1]', 'hT1R1/hT1R3 umami receptor (Homo sapiens, UniProt Q7RTX0+Q7RTX1)', 'pEC50', 6.70),
  ('CCCC(CCC)NC(=O)c1ccc(OCCOC)c(C)c1 [Example 59]', 'hT1R1/hT1R3 umami receptor (Homo sapiens, UniProt Q7RTX0+Q7RTX1)', 'pEC50', 6.68);
